System: U-2932
Assay: growth inhibition by drug alone (1 - RLU/untreated control) (fraction); higher = stronger inhibition
Settings: 1000 nM; time (day): 6; 177Lu-lilotomab satetraxetan 0 ug/ml
Recorded growth inhibition by drug alone for the following compounds
ENDPOINT NAME: growth inhibition by drug alone

>>> value_reported("COc1cc(Nc2ncc(F)c(Nc3ccc4c(n3)N(COP(=O)(O)O)C(=O)C(C)(C)O4)n2)cc(OC)c1OC")
-0.0248
>>> value_reported("CC(C=CC(=O)NO)=CC(C)C(=O)c1ccc(N(C)C)cc1 (centres undefined) [Trichostatin A (TSA)]")
0.983
>>> value_reported("Cn1nnc2c(C(N)=O)ncn2c1=O [Temozolomide]")
-0.101
>>> value_reported("CN(C)C/C=C/C(=O)Nc1cc2c(Nc3ccc(F)c(Cl)c3)ncnc2cc1O[C@H]1CCOC1 [Afatinib (BIBW2992)]")
0.0902

====

Tested on: RIVA
Experiment: growth inhibition by drug alone (1 - RLU/untreated control) (fraction); higher = stronger inhibition
Details: 100 nM; time (day): 3; 177Lu-lilotomab satetraxetan 0 ug/ml
Structures can show the parent of a compound that is named as a salt.
Tag: label 1 if measured growth inhibition by drug alone is not below -0.3, label 0 if it is.

>>> assigned_category("CC(C)(C)c1[nH]cnc1/C=c1\\[nH]c(=O)/c(=C/c2ccccc2)[nH]c1=O")
"label 1"
>>> assigned_category("Cc1ccc(-c2cc(C(F)(F)F)nn2-c2ccc(S(N)(=O)=O)cc2)cc1")
"label 1"
>>> assigned_category("C[C@@H](N)[C@H]1CC[C@H](C(=O)Nc2ccncc2)CC1")
"label 0"
>>> assigned_category("CCOc1cc(C(=O)Nc2ccc(Cl)c(-c3nc4ccccc4[nH]3)c2)cc(OCC)c1OCC")
"label 1"
>>> assigned_category("Cc1csc(-c2nnc(Nc3ccc(Oc4ncccc4-c4ccnc(N)n4)cc3)c3ccccc23)c1")
"label 1"
>>> assigned_category("CC[C@@H]1C(=O)N(C)c2cnc(Nc3ccc(C(=O)N[C@H]4CC[C@H](N5CCN(CC6CC6)CC5)CC4)cc3OC)nc2N1C(C)C")
"label 1"
>>> assigned_category("CCC[C@H](NC(=O)/C(C#N)=C/c1cccc(Br)n1)c1ccccc1")
"label 0"
>>> assigned_category("O=C(O)C1(C(=O)O)CCC1.[NH2-].[NH2-].[Pt+2]")
"label 1"
>>> assigned_category("CC(C)c1ccc(Cn2ccc3c4c(N)nc(NC5CC5)nc4ccc32)cc1")
"label 1"
>>> assigned_category("CC(C)C[C@H](NC(=O)CNC(=O)c1cc(Cl)ccc1Cl)B(O)O")
"label 1"
>>> assigned_category("CCOc1ccn(-c2ccc(F)cc2)c(=O)c1C(=O)Nc1ccc(Oc2ccnc(N)c2Cl)c(F)c1")
"label 1"
>>> assigned_category("CCOc1cc2ncc(C#N)c(Nc3ccc(F)c(Cl)c3)c2cc1NC(=O)/C=C/CN(C)C [Pelitinib (EKB-569)]")
"label 0"
>>> assigned_category("OCCn1cc(-c2ccc3c(c2)CC/C3=N\\O)c(-c2ccncc2)n1")
"label 0"
>>> assigned_category("CCOc1cc2ncc(C#N)c(Nc3ccc(OCc4ccccn4)c(Cl)c3)c2cc1NC(=O)/C=C/CN(C)C")
"label 1"
>>> assigned_category("FC(F)c1nc2ccccc2n1-c1nc(N2CCOCC2)nc(N2CCOCC2)n1")
"label 1"
>>> assigned_category("O=c1cc(N2CCOCC2)oc2c(-c3cccc4c3sc3ccccc34)cccc12")
"label 0"
>>> assigned_category("C[C@@H](Oc1cc(-c2cnn(C3CCNCC3)c2)cnc1N)c1c(Cl)ccc(F)c1Cl")
"label 0"
>>> assigned_category("CCc1cc(Nc2nccc(-c3c(-c4ccc(OC)c(C(=O)Nc5c(F)cccc5F)c4)nc4ccccn34)n2)c(OC)cc1N1CCC(N2CCN(S(C)(=O)=O)CC2)CC1")
"label 1"
>>> assigned_category("O=C1C(Cl)=C(NCCN2CCOCC2)C(=O)c2ncccc21")
"label 1"
>>> assigned_category("Nc1ccc(-c2ccc3ncc4ccc(=O)n(-c5cccc(C(F)(F)F)c5)c4c3c2)cn1")
"label 1"
>>> assigned_category("C[C@]12CC[C@@H]3c4ccc(O)cc4CC[C@H]3[C@@H]1CC[C@@H]2O")
"label 1"
>>> assigned_category("Nc1nc(Cl)nc2c1ncn2[C@H]1C[C@H](O)[C@@H](CO)O1")
"label 1"
>>> assigned_category("Nc1cccc2c1CN(C1CCC(=O)NC1=O)C2=O (centres undefined) [Lenalidomide]")
"label 1"
>>> assigned_category("CC(C)(C#N)c1cc(Cn2cncn2)cc(C(C)(C)C#N)c1")
"label 1"
>>> assigned_category("CCN(CC)C(=S)SSC(=S)N(CC)CC")
"label 1"
>>> assigned_category("COc1cc2ncnc(Nc3ccc(F)c(Cl)c3)c2cc1OCCCN1CCOCC1")
"label 1"
>>> assigned_category("C[N+](C)([O-])CCNc1ccc(NCC[N+](C)(C)[O-])c2c1C(=O)c1c(O)ccc(O)c1C2=O [Banoxantrone dihydrochloride]")
"label 0"
>>> assigned_category("CC(=O)O[C@]1(C(C)=O)CC[C@H]2[C@@H]3C[C@H](C)C4=CC(=O)CC[C@]4(C)[C@H]3CC[C@@]21C [Medroxyprogesterone acetate]")
"label 0"
>>> assigned_category("COc1ccc(CCN2CCN(CCCc3ccccc3)CC2)cc1OC")
"label 0"
>>> assigned_category("COC(=O)c1ccc2c(C(=Nc3ccc(N(C)C(=O)CN4CCN(C)CC4)cc3)c3ccccc3)c(O)[nH]c2c1")
"label 1"
>>> assigned_category("CS(=O)(=O)c1ccc(C(=O)Nc2ccc(Cl)c(-c3ccccn3)c2)c(Cl)c1")
"label 1"
>>> assigned_category("NC(=O)Nc1sc(-c2ccc(F)cc2)cc1C(N)=O")
"label 0"

====

Recorded growth inhibition by drug alone for the following molecules
Test system: U-2932
Experiment: growth inhibition by drug alone (1 - RLU/untreated control) (fraction); higher = stronger inhibition
Conditions: 1000 nM; time (day): 3; 177Lu-lilotomab satetraxetan 0 ug/ml
ENDPOINT NAME: growth inhibition by drug alone

>>> value_reported("Nc1cccc2c1CN(C1CCC(=O)NC1=O)C2=O (centres undefined) [Lenalidomide]")
0.122
>>> value_reported("CCn1c(-c2nonc2N)nc2c(C#CC(C)(C)O)ncc(OC[C@H]3CCCNC3)c21")
0.654
>>> value_reported("CCc1cc(-c2n[nH]c(C)c2-c2ccc3c(c2)OCCO3)c(O)cc1O")
0.0202
>>> value_reported("O=NN(CCCl)C(=O)NC1CCCCC1 [Lomustine (CeeNU)]")
-0.00465
>>> value_reported("O=C(NOC[C@H](O)CO)c1ccc(F)c(F)c1Nc1ccc(I)cc1F")
0.152
>>> value_reported("Cc1ccc(C(=O)Nc2ccc(CN3CCN(C)CC3)c(C(F)(F)F)c2)cc1C#Cc1cnc2cccnn12")
0.619
>>> value_reported("CN(N=O)C(=O)N[C@@H](C=O)[C@@H](O)[C@H](O)[C@H](O)CO [Streptozotocin (Zanosar)]")
-0.124
>>> value_reported("CCOc1ccc(Nc2nc(-c3c(C)nc4ccccn34)cs2)cc1")
0.961
>>> value_reported("C[C@@H](Oc1cc(-n2cnc3ccc(CN4CCN(C)CC4)cc32)sc1C(N)=O)c1ccccc1C(F)(F)F")
0.94
>>> value_reported("CS(=O)(=O)N1CCc2c(-c3cnc(N)nc3)nc(N3CCOCC3)nc21")
0.351
>>> value_reported("CC(C)C[C@H](NC(=O)[C@@H](O)[C@H](N)Cc1ccccc1)C(=O)O [Ubenimex (Bestatin)]")
-0.043
>>> value_reported("Cc1ccc([N+](=O)[O-])cc1S(=O)(=O)N(C)/N=C/c1cnc2ccc(Br)cn12")
0.963
>>> value_reported("COc1cc(N2CCC(N3CCN(C)CC3)CC2)ccc1Nc1ncc(Cl)c(Nc2ccccc2S(=O)(=O)C(C)C)n1")
0.411
>>> value_reported("CCCCc1nc2cc(/C=C/C(=O)NO)ccc2n1CCN(CC)CC [SB939 (Pracinostat)]")
0.935
>>> value_reported("CNC(=O)c1ccccc1Sc1ccc2c(/C=C/c3ccccn3)n[nH]c2c1 [Axitinib]")
0.0126
>>> value_reported("COc1c(C)cnc(Cn2cnc3c(Cl)nc(N)nc32)c1C")
0.935
>>> value_reported("CN1CCN(c2nc(C3=C(c4c[nH]c5ccccc45)C(=O)NC3=O)c3ccccc3n2)CC1 [Sotrastaurin (AEB071)]")
0.463
>>> value_reported("S=C(NCc1ccc2c(c1)OCO2)N1CCN(c2ncnc3c2oc2ccccc23)CC1 [Amuvatinib (MP-470)]")
0.459
>>> value_reported("CC(C)(C)c1cc(NC(=O)Nc2ccc(-c3cn4c(n3)sc3cc(OCCN5CCOCC5)ccc34)cc2)no1 [Quizartinib (AC220)]")
-0.0933
>>> value_reported("Oc1ccc(Nc2nc(-c3ccc(Cl)cc3)cs2)cc1")
0.00763
>>> value_reported("CNC(=O)c1cc(COc2nnc(Nc3ccc(Cl)cc3)c3ccoc23)ccn1 [Telatinib (BAY 57-9352)]")
-0.0825
>>> value_reported("CC[C@@H]1/C=C(\\C)C[C@H](C)C[C@H](OC)[C@H]2O[C@@](O)(C(=O)C(=O)N3CCCC[C@H]3C(=O)O[C@H](/C(C)=C/[C@@H]3CC[C@H](Cl)[C@H](OC)C3)[C@H](C)[C@@H](O)CC1=O)[C@H](C)C[C@@H]2OC [Pimecrolimus]")
0.139
>>> value_reported("NC(=O)c1ccc2nc(-c3ccc(Oc4ccc(Cl)cc4)cc3)[nH]c2c1")
-0.16
>>> value_reported("CC(=O)O[C@@]12CO[C@@H]1C[C@H](O)[C@@]1(C)C(=O)[C@H](O)C3=C(C)[C@@H](OC(=O)[C@H](O)[C@@H](NC(=O)OC(C)(C)C)c4ccccc4)C[C@@](O)([C@@H](OC(=O)c4ccccc4)[C@H]21)C3(C)C [Docetaxel (Taxotere)]")
0.964
>>> value_reported("O=C(O)CC[C@H]1CC[C@@](c2cc(F)ccc2F)(S(=O)(=O)c2ccc(Cl)cc2)CC1")
0.0344
>>> value_reported("CN(C)CCCN=c1c2ccccc2n(C)c2[nH]c(=O)n(C)c(=O)c12")
0.0731
>>> value_reported("CN(NC(=O)CC(=O)NN(C)C(=S)c1ccccc1)C(=S)c1ccccc1 [Elesclomol]")
0.982
>>> value_reported("CC1(COc2ccc3c(c2)ncn3-c2ccc3cccc(N4CCC(N)CC4)c3n2)COC1")
0.0371
>>> value_reported("Cn1cc(C2=C(c3ccc(Cl)cc3Cl)C(=O)NC2=O)c2ccccc21")
-0.0209
>>> value_reported("Cc1ccc(-c2csc3ncnc(SCCC(=O)O)c23)cc1")
-0.00216
>>> value_reported("CS(=O)(=O)c1cccc(CNc2nc(Nc3ccc4c(c3)CCC(=O)N4)ncc2C(F)(F)F)c1")
-0.0504
>>> value_reported("COc1ccc(/C=C\\c2cc(OC)c(OC)c(OC)c2)cc1O [Combretastatin A4]")
0.965
>>> value_reported("CCn1c(-c2nonc2N)nc2cnc(Oc3cccc(NC(=O)c4ccc(OCCN5CCOCC5)cc4)c3)cc21")
0.0463
>>> value_reported("CC(C)C[C@H](NC(=O)[C@H](Cc1ccccc1)NC(=O)c1cnccn1)B(O)O [Bortezomib (Velcade)]")
0.985
